Data credit: ChEMBL document CHEMBL1201862

# Assay system: Streptokinase A (Streptococcus pyogenes serotype M1)
# Sequence (P10520 whole entry): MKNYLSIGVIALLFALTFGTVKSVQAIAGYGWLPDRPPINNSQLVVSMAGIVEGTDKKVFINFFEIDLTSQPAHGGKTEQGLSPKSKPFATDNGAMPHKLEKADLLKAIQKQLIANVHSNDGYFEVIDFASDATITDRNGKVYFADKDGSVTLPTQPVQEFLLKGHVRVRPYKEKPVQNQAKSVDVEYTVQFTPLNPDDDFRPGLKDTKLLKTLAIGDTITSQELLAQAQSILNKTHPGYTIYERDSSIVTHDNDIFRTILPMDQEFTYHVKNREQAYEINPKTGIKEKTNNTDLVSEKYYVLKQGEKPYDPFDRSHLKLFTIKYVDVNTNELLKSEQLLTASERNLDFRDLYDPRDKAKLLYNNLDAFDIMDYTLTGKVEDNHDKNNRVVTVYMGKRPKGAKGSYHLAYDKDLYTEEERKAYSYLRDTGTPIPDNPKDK
# Protocol summary: S. pyogenes streptokinase expression inhibitors, potency, dose response, plasminogen activation absorbance, OD405 (AID 1914);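 also: secreted streptokinase activity via plasminogen activation per viability signal from cell pellet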
# Format: functional, Streptococcus pyogenes M1 GAS
The source made the active and inactive calls. Rule as the data show it: actives have a measured EC50 and inactives only a lower limit.

>  <Compound>
CC(=O)N1CCN(c2ccccc2NC(=O)c2cccs2)CC1

>  <EC50>
> 150 µM (not active)

$$$$
>  <Compound>
Clc1ccc(-c2csc(Nc3ccccc3)[n+]2Cc2ccco2)c(Cl)c1

>  <EC50>
2.27 µM (active)

$$$$
>  <Compound>
O=C(/C=C/c1cccc([N+](=O)[O-])c1)c1ccc([N+](=O)[O-])o1

>  <EC50>
> 150 µM (not active)

$$$$
>  <Compound>
Nc1ccc(N=Nc2ccccc2)c2ccccc12

>  <EC50>
> 150 µM (not active)

$$$$
>  <Compound>
CCOC(=O)Cc1cc(O)n2ncc(-c3cccc(Br)c3)c2n1

>  <EC50>
> 150 µM (not active)

$$$$
>  <Compound>
Cc1cc(C)c2nc(NNC(=O)c3ccc(S(=O)(=O)N4CCCC(C)C4)cc3)sc2c1 (stereo not given)

>  <EC50>
> 150 µM (not active)

$$$$
>  <Compound>
CCC1CCCCN1S(=O)(=O)c1ccc(NC(=O)c2nc(S(C)(=O)=O)ncc2Cl)cc1 (stereo not given)

>  <EC50>
0.66 µM (active)

$$$$
>  <Compound>
COC(=O)c1c(NC(=O)c2ccn(C)n2)sc2c1CCC2

>  <EC50>
> 150 µM (not active)

$$$$
>  <Compound>
COc1ccc(-c2c(C(F)(F)F)nn3c(O)cc(-c4ccccc4)nc23)cc1

>  <EC50>
> 150 µM (not active)

$$$$
>  <Compound>
COc1cc2c(C#N)c(N3CCN(c4ccccc4OC)CC3)nc(N)c2c(N)n1

>  <EC50>
22.6 µM (active)

$$$$
